# target.desc: Nuclear receptor ROR-gamma (Homo sapiens)
# experiment.summary: qHTS assay for small molecule antagonists of the retinoid-related orphan receptor gamma (ROR-gamma) signaling pathway (AID 651802); also: nearly all actives have a fitted effect of over 60% in size; also: potency is read from the fitted curve at half-maximal effect
# test.context: ROR-gamma antagonist cell reporter assay; series mostly up to 92.2 µM
Results filed as inconclusive are left out. Activity calls are given as the source filed them. Calls follow the shape of the dose curve; as a rule, active = well fitted inhibition curve with a large enough effect; inconclusive = small, poorly fitted or top-dose-only effect; inactive = no such curve, though single readings can be large or run the other way.
experimental.endpoint: Potency

NC(=O)N1c2ccccc2C=Cc2ccccc21    inactive
CCCCNC(=O)NS(=O)(=O)c1ccc(C)cc1    inactive
NC(=Nc1ccccc1)Nc1ccccc1    inactive
Nc1nc(N)c2nc(-c3ccccc3)c(N)nc2n1    inactive
Nc1ncn([C@@H]2O[C@H](CO)[C@@H](O)[C@H]2O)c(=O)n1    3.35 µM (active)
CN=C(NC#N)NCCSCc1nc[nH]c1C    inactive
